# assay_target: human TRPV3 (Homo sapiens)
# Sequence (Q8NET8 whole entry): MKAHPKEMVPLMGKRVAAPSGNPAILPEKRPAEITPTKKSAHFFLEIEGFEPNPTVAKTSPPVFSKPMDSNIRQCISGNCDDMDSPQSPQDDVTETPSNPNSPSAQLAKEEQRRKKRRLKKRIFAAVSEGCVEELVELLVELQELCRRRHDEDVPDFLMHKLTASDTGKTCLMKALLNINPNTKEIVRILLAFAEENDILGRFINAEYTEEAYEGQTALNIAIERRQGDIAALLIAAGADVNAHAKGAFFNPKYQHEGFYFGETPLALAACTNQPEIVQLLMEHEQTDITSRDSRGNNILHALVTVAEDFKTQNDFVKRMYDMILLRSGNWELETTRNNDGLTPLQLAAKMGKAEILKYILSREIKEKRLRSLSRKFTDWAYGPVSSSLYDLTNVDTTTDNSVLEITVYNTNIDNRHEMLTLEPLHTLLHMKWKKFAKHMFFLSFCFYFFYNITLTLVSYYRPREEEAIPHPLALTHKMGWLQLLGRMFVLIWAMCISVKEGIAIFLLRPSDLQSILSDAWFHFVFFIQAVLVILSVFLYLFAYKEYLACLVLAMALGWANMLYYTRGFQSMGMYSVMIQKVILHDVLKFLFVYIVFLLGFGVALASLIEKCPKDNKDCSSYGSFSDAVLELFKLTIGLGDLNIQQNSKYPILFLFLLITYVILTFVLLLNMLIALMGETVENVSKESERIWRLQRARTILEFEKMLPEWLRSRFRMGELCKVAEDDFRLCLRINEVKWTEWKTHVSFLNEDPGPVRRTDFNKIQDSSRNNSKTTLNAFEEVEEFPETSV
# assay_procedure: Calcium flux assay (FLIPR TETRA), recombinant HEK293 cells expressing TRPV3, 2-APB response
# run_parameters: 2-APB at its EC80
pIC50: −log10 of the molar value.
endpoint_name: pIC50

Illustrative cases are given below, each with its answer.
>>> print(df.to_string())
                                   compound        result
0  COc1ncnc(OC)c1C(=O)Nc1nc(C(F)(F)F)c(CN2CC[C@@H](F)C2)s1  7.00 to 7.30
1  COc1ncnc(OC)c1C(=O)Nc1nc(-c2ccc(C(F)(F)F)cn2)c(CO)s1  7.00 to 7.30
2  COc1ncnc(OC)c1C(=O)Nc1nc(C(F)(F)F)c(-c2cncc(C(F)(F)F)c2)s1        > 7.30
3  COc1ncnc(OC)c1C(=O)Nc1nc(CCc2ccc(F)cc2)cs1  6.00 to 6.30
4  COc1ncnc(OC)c1C(=O)Nc1nc(-c2ccc(OC(F)(F)F)cc2)c(C(C)O)s1 (stereo not shown)  6.30 to 7.00

Using the record for `CO/N=C(/C)c1sc(NC(=O)c2c(OC)ncnc2OC)nc1C(F)(F)F` , state its measured pIC50.
> 7.30

Give reported pIC50 value for COc1ncnc(OC)c1C(=O)Nc1nc(C(F)(F)F)c(C(O)C(C)(C)C)s1 (stereo not shown)
6.30 to 7.00
